- TEST_DESCRIPTION: NCI Yeast Anticancer Drug Screen. Data for the mec2-1 strain (AID 157)
- SETUP_CONDITIONS: S. cerevisiae mec2-1 strain, at 50.0 µM
Compounds without any hit were thinned out: in the full panel of roughly 79,000, 15% have a hit. Activity calls are given as the source filed them. Cut-off read from the data, not from the text of the source: active = growth inhibition above about 70%; inactive = the rest.
Could you please pick one outcome from this set? active, inactive

Exam item: Please let me know the test result on file for `CCCCCCCCCCCCCCCCCC(=O)OCC(O)COC(=O)CCCCCCCCCCCCCCCCC` .
Marked response: inactive

Exam item: Please let me know the test result on file for `Clc1cccc(N2CCN(c3c4c(nc5ccccc35)CCCCC4)CC2)c1` .
Marked response: active

Exam item: Please let me know the test result on file for CCC(=O)N1c2ccccc2CC1c1c[nH]c2ccccc12 (stereo unspecified) .
Marked response: inactive

====

- TEST_DESCRIPTION: NCI Yeast Anticancer Drug Screen. Data for the mec2-1 strain (AID 157)
- SETUP_CONDITIONS: S. cerevisiae mec2-1 strain, at 5.0 µM (retest, dose inferred, filed as 0.5), stronger effect = higher value
- Protocol: Growth inhibition of yeast strains with defined genetic alterations is measured as a screen for potential anti-cancer activity. Selected strains with alterations in DNA damage repair or cell cycle control were exposed to compounds and growth inhibition was measured relative to vehicle treated controls. The strain used in this assay is mec2-1
The panel holds about 79,000 compounds, 15% with a hit somewhere; the sample as a whole holds those more often. The source made the active and inactive calls. Cut-off read from the data, not from the text of the source: active = growth inhibition above about 70%; inactive = the rest.
OBSERVATION_TYPE: growth inhibition

The cases that follow already have their growth inhibition on record.
C/C=C(\C)C(=O)O[C@@H]1CC(C)(C)CC2C3=CCC4[C@]56CC[C@](O)(OC5)C(C)(C)C6CC[C@@]4(C)C3(C)CC[C@]21C(=O)O (some centres undefined) :: 67% (inactive)
CCCCCCC(=O)CC(SCCN)c1ccccc1Cl (centres undefined) :: -5% (inactive)
O=C(Nc1ccc(C(=O)c2ccccc2)cc1)Nc1ccc(Cl)c(Cl)c1 :: 9% (inactive)

Next compound, growth inhibition to be filled in.
Exam item: Hello, please tell me recorded growth inhibition for this one: `Cc1nc2sc3c(c2c2nnnn12)CCCC3`
Marked response: 8% (inactive)

====

- TEST_DESCRIPTION: NCI Yeast Anticancer Drug Screen. Data for the sgs1 mgt1 strain (AID 161);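 note: 0% = growth of cultures given vehicle only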
- SETUP_CONDITIONS: S. cerevisiae sgs1 mgt1 strain, at 50.0 µM (retest, dose inferred, filed as 5.0)
The panel holds about 79,000 compounds, 15% with a hit somewhere; the sample as a whole holds those more often. The source made the active and inactive calls. No stated cut-off is given here; in the data, active means growth inhibition above about 70%; inactive means the rest.
Could you please pick one outcome from this set? 1 (active), -1 (inactive)

Example entries and their recorded answers appear below.
O=C(Cn1cnc2ccc([N+](=O)[O-])cc21)N1CCN(c2ccccc2)CC1 :: -1
CCCCCCCCCCCC(=O)N1CCCC1 :: -1
O=C(Nc1ccccc1F)C(Br)C(Br)c1ccccc1 (configuration not stated) :: 1
O=C1CCCCCC1Cc1cc(O)c(CC2CCCCCC2=O)cc1O (configuration not stated) :: 1
CN=C(N)N/N=C(\C)c1ccc2c(c1)Cc1cc(/C(C)=N/NC(N)=NC)ccc1-2 :: 1
CCC(=O)N1c2ccccc2CC1c1c[nH]c2ccccc12 (configuration not stated) :: 1
O=c1[nH]c2c([N+](=O)[O-])cc(Cl)cc2nc1/C=C(\O)c1ccccc1 :: -1
CCOC(=O)C(CO)c1nc2c([nH]c1=O)c(=O)n(C)c(=O)n2C (configuration not stated) :: -1
COc1ccc(C(=O)CC2(O)C(=O)N(C)c3c(Cl)cc(Cl)cc32)cc1 (configuration not stated) :: -1
CCN(CC)c1ccc(N=Nc2ccc(-c3nc4cccn(C)c-4n3)cc2)cc1 :: -1

Exam item: Please let me know the test result on file for `N#CSCCSC#N` .
Marked response: 1
